system_name: PRMT5-MEP50 enzyme (Homo sapiens)
Construct: One virus expresses full length human PRMT5 with Flag-tag at N-terminus; Flag (N); purchased Charles River (Argenta); host or cells: insect cells (Sf9), baculovirus co-infection
Sequence (O14744 whole entry): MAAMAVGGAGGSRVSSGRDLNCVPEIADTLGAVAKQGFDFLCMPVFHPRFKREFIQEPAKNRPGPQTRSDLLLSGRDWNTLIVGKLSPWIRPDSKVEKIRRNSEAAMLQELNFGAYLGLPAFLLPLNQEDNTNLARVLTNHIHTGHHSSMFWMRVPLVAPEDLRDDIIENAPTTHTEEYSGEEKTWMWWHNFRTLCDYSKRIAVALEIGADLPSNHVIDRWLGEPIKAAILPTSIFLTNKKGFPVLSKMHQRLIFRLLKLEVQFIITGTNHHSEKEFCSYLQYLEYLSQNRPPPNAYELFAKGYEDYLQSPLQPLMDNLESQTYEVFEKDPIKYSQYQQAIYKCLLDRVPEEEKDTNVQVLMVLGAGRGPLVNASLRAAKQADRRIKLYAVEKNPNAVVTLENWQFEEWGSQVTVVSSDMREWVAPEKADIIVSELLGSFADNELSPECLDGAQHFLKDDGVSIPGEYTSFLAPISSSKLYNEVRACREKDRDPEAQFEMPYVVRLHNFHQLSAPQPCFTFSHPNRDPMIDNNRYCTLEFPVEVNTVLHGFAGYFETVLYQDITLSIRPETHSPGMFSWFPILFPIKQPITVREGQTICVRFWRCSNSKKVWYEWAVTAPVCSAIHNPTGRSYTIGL
Sequence (Q9BQA1 whole entry partner): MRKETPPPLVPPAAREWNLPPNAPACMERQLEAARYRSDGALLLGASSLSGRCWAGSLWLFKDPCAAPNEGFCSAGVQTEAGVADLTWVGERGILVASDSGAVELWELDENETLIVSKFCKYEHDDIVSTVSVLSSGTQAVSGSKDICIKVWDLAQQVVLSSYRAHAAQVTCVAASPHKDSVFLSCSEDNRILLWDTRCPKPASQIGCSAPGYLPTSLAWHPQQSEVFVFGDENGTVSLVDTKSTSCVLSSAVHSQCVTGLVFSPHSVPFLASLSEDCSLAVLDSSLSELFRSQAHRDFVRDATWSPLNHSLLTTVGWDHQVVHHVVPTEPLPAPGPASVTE
assay_method_text: In vitro assay 1b: high throughput mass spectrometer assay of SAH formation, 1.25 nM enzyme, 120 min
Assay type: biochemical
setup_conditions: averaged values; PRMT5-MEP50, 1.25 nM enzyme, 120 min; read-out: pIC50 Assay 1b (converted)
measured_quantity: IC50 (nM)
Numbers only, in nM.

Nc1ncnc2c1ccn2[C@@H]1O[C@H](CNc2ccc3cccnc3c2)[C@@H](O)[C@H]1O [Compound 49] : 10

Query block: I would be grateful if you could share the reported IC50 for Nc1ccc2ccc(OC[C@H]3O[C@@H](n4ccc5cncnc54)[C@H](O)[C@@H]3O)cc2n1 [Compound 163] .
Result block: 5.01

The origin of these recorded values is patent US11318157B2.
